target_or_system: Gamma-aminobutyric acid receptor subunit alpha-5 [32-462]/beta-2 [26-512]/gamma-2 [40-467] (Homo sapiens, UniProt P18507+P31644+P47870)
Construct: 32-462; 26-512; 40-467
protocol_notes: Radioligand Binding Assay
test_parameters: pH 7.4; 22 °C

| smiles_representation | limit_sign | Ki, nM |
| --- | --- | --- |
| CN1CCN(C(=O)Oc2c3[nH]ccnc-3c(=O)n2-c2ccc(Cl)cn2)CC1 | = | 102 |
| Cc1ccc(-c2nc3ccc(C)cn3c2CC(=O)N(C)C)cc1 | > | 15000 |

----------
target_or_system: Gamma-aminobutyric acid receptor subunit alpha-1 [28-456]/beta-2 [26-512]/gamma-2 [40-467,R183C] (Homo sapiens, UniProt P14867+P18507+P47870, R183C)
Construct: 28-456; 26-512; 40-467
protocol_notes: Radioligand Binding Assay
test_parameters: 25 °C

| smiles_representation | Ki |
| --- | --- |
| CN1CCN(C(=O)Oc2c3[nH]ccnc-3c(=O)n2-c2ccc(Cl)cn2)CC1 | 174 nM |
